target: EGFR-L858R/C797S (H1975-clone #8 cells) (Homo sapiens, UniProt P00533, C797S/L858R); construct: expressed in transfected cells; host or cells: H1975 (endogenous EGFR knocked out, clone #8); assay: Cell degradation of EGFR, HTRF assay, H1975-clone#8 (L858R/C797S) cells; assay type: cell-based; conditions: 16 h treatment, maximum percentage of degradation
Sequence (P00533 25-1210 C797S/L858R): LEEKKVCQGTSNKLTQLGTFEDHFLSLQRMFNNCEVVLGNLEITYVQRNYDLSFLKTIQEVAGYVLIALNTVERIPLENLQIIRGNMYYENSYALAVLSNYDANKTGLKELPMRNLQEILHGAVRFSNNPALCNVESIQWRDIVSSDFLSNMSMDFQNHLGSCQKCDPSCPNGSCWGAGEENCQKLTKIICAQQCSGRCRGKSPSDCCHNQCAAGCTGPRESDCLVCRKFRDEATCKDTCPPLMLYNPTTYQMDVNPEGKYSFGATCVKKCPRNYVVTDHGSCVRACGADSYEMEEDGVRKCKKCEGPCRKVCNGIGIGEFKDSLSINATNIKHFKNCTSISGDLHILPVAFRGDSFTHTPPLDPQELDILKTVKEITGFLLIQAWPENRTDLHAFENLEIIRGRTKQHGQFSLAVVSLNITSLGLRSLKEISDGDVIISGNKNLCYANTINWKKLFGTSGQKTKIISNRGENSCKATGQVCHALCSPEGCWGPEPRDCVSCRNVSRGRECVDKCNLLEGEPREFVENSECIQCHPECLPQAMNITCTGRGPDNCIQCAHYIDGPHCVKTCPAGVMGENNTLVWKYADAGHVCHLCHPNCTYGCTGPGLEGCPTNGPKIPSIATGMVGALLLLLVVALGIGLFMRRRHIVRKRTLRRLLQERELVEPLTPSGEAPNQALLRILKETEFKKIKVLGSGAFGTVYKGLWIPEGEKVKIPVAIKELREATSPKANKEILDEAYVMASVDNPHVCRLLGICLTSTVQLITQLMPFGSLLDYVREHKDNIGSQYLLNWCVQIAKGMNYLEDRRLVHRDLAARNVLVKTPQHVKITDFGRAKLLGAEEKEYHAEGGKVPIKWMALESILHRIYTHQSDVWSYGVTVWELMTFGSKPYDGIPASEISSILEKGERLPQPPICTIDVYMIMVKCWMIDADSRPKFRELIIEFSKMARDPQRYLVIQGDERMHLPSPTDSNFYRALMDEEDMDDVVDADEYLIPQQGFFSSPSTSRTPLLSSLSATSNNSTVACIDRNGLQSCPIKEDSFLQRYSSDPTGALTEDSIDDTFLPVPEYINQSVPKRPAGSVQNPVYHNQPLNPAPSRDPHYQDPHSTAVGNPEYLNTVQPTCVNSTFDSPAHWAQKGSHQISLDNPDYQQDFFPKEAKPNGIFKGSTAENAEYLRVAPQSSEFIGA
Dmax values for the compounds below.
Reply with just the number (in %).

Look over these answered cases.
>  <COMPOUND>
COC[C@@H]1CN(c2ccc3c(c2)N2C[C@@H]4CC[C@H](COc5c(cnn5C)-c5cc(cc(C)n5)C(=O)/N=C/2N3)C4)CCN1C1CCN(c2cc(F)c([C@H]3CCC(=O)NC3=O)c(F)c2)CC1 [Example 9]

>  <REPORTED_ENDPOINT>
Dmax

>  <NUMERIC_VALUE>
71.7

$$$$
>  <COMPOUND>
Cc1cc2cc(n1)-c1cnn(C)c1OC[C@H]1CCC(C1)CN1/C(=N/C2=O)Nc2ccc(N3CCN(C4CCN(c5c(F)cc(NC6CCC(=O)NC6=O)cc5F)CC4)CC3)cc21 (stereo partly shown) [Example 92]

>  <REPORTED_ENDPOINT>
Dmax

>  <NUMERIC_VALUE>
79.8

$$$$
>  <COMPOUND>
Cc1cc2cc(n1)-c1cnn(C)c1OC[C@H]1CCC(C1)CN1/C(=N/C2=O)Nc2ccc(N3CCN(CCc4cc(F)c(C5CCC(=O)NC5=O)nc4C)CC3)cc21 (stereo partly shown) [Example 78]

>  <REPORTED_ENDPOINT>
Dmax

>  <NUMERIC_VALUE>
65.5

$$$$
>  <COMPOUND>
Cc1cc2cc(n1)-c1cnn(C)c1OC[C@H]1CC[C@H](C1)CN1/C(=N/C2=O)Nc2ccc(N3CCN(CC4CN(c5c(C)cc(C6CCC(=O)NC6=O)nc5C)C4)CC3)cc21 (stereo partly shown) [Example 8]

>  <REPORTED_ENDPOINT>
Dmax

>  <NUMERIC_VALUE>
74.2

$$$$
>  <COMPOUND>
Cc1cc2cc(n1)-c1cnn(C)c1OC[C@H]1CCC(C1)CN1/C(=N/C2=O)Nc2ccc(N3CCN([C@H]4CCN(c5cc(F)c([C@H]6CCC(=O)NC6=O)c(F)c5)C[C@H]4F)CC3)cc21 (single isomer, unassigned) [Example 84]

>  <REPORTED_ENDPOINT>
Dmax

>  <NUMERIC_VALUE>
64.7

$$$$
>  <COMPOUND>
COC[C@H]1CN(c2ccc3c(c2)N2C[C@@H]4CC[C@H](COc5c(c(C)nn5CCO)-c5cc(cc(C)n5)C(=O)/N=C/2N3)C4)CCN1C1CCN(c2cc(F)c([C@H]3CCC(=O)NC3=O)c(F)c2)CC1 [Example 156]

>  <REPORTED_ENDPOINT>
Dmax

>  <NUMERIC_VALUE>
88

$$$$
>  <COMPOUND>
COC[C@@H]1CN(c2ccc3c(c2)N2CC4CC[C@H](COc5c(cnn5C)-c5cc(cc(C)n5)C(=O)/N=C/2N3)C4)CCN1C1CCN(c2ccc(C3CCC(=O)NC3=O)nc2C)CC1 (stereo partly shown) [Example 73]

>  <REPORTED_ENDPOINT>
Dmax

>  <NUMERIC_VALUE>
78.4

$$$$
>  <COMPOUND>
Cc1cc2cc(n1)-c1cnn(C)c1OC[C@H]1CC[C@H](C1)CN1/C(=N/C2=O)Nc2ccc(N3CCN(C4CCN(c5ccc([C@H]6CCC(=O)NC6=O)nc5C)CC4)[C@H](C)C3)cc21 [Example 162]

>  <REPORTED_ENDPOINT>
Dmax

>  <NUMERIC_VALUE>
85.4

$$$$
>  <COMPOUND>
COC[C@@H]1CN(c2cc3c(cc2F)N/C2=N\C(=O)c4cc(C)nc(c4)-c4c(C)nn(C)c4OC[C@H]4CC[C@H](C4)CN23)CCN1C1CCN(c2cc(F)c([C@H]3CCC(=O)NC3=O)c(F)c2)CC1 [Example 169]

>  <REPORTED_ENDPOINT>
Dmax

>  <NUMERIC_VALUE>
91.6

$$$$

Attention now turns to another entry.
# Dmax (compound: COC[C@H]1CN(c2ccc3c(c2)N2CC4CC[C@H](COc5c(c(C)nn5C)-c5cc(cc(C)n5)C(=O)/N=C/2N3)C4)CCN1C1CCN(c2cc(F)c(C3CCC(=O)NC3=O)nc2C)CC1 (stereo partly shown) [Example 90] ) is 87.4
